Sourced from patent US10392404B2

- TARGET SYSTEM: C-RAF (Homo sapiens, UniProt P04049, Y340E/Y341E)
- Construct: His tag (implied by nickel chromatography) (cleaved yes); StrepII tag (cleaved yes); MEK1 substrate from E. coli
- Sequence (P04049 whole entry Y340E/Y341E): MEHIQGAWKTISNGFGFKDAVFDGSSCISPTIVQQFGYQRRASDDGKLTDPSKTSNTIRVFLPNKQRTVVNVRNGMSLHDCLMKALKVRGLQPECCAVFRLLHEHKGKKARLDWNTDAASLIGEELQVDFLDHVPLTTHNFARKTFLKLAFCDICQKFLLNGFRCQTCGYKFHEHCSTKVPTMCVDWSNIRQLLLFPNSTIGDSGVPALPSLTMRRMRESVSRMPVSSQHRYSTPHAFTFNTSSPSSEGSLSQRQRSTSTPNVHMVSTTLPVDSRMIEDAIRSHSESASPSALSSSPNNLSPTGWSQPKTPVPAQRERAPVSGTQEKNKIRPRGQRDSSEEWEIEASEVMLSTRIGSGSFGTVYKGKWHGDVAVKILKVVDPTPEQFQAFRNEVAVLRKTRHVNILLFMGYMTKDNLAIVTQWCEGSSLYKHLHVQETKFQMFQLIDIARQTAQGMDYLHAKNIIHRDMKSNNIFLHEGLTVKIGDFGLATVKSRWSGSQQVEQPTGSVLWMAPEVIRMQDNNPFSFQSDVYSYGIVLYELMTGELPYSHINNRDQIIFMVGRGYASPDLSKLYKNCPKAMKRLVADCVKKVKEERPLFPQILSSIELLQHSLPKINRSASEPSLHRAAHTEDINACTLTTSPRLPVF
- Sequence (P63104 whole entry partner): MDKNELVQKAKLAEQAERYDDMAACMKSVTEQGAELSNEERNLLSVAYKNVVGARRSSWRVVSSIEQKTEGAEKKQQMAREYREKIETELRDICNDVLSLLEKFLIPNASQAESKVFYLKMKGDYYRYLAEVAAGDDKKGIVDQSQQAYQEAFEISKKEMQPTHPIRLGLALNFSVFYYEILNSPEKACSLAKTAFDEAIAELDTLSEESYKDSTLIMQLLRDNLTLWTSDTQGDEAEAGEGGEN
- ASSAY DETAILS: In vitro Raf activity determination (Alpha Screen, biotinylated kinase-dead MEK1 substrate), C-Raf
- CONDITION CONTEXT: c-Raf approximately 4 nM; ATP 1 μM; pre-incubation 60 minutes; reaction 1 hour at room temperature
pIC50: −log10 of the molar value.
VALUE TYPE: pIC50

Here are 3 molecules together with their reported answers.
MOLECULE	pIC50
Cc1ccc(NC(=O)c2ccnc(C3(C#N)CC3)c2)cc1-c1cnc(N2CCNCC2)c(C#N)c1 [Example 145]	9.83
Cc1ccc(NC(=O)c2ccnc(C(C)(C)C#N)c2)cc1-c1cnc(C(C)C)c(C#N)c1 [Example 122]	9.00
Cc1ccc(NC(=O)c2cccc(S(C)(=O)=O)c2)cc1-c1cnc(N(C)C)c(C#N)c1 [Example 260]	9.94

(1) Cc1ncc(NC(=O)c2ccnc(C(F)(F)F)c2)cc1-c1cnc(-n2ccccc2=O)c(C#N)c1 [Example 51]
(2) Cc1ncc(NC(=O)c2ccnc(C(C)(C)C#N)c2)cc1-c1cnc(-n2ccnc2C)c(C#N)c1 [Example 81]
(3) Cc1ccc(NC(=O)c2cccc(C(F)(F)F)c2)cc1-c1cc(C#N)c[nH]c1=O [Example 14]
(4) Cc1ncc(NC(=O)c2ccnc(C(C)(C)O)c2)cc1-c1cnc(NC2CCOCC2)c(C#N)c1 [Example 170]
(5) Cc1ccc(NC(=O)c2ccnc(C(F)(F)F)c2)cc1-c1cnc(NC(C)C)c(C#N)c1 [Example 22]
Ordering: ascending pIC50. Sort and list the labels as requested. 1, 2, 4, 3, 5

(I) Cc1ccc(NC(=O)c2cc(C3CC3)on2)cc1-c1cnc(N(C)C)c(C#N)c1 [Example 259]
(II) Cc1ncc(NC(=O)c2ccnc(C(C)(C)C#N)c2)cc1-c1cnc(NC2CC2)c(C#N)c1 [Example 82]
(III) Cc1ccc(NC(=O)c2ccnc(C(F)F)c2)cc1-c1cnc(N2CCNCC2)c(C#N)c1 [Example 160]
(IV) Cc1ncc(NC(=O)c2ccnc(C(F)F)c2)cc1-c1cnc(NC2CCOCC2)c(C#N)c1 [Example 171]
Arrange items by their pIC50 values in increasing order. Give the labels in the order specified. II, IV, I, III

###

- TARGET SYSTEM: b-Raf (V600E) (Homo sapiens, UniProt P15056, V600E)
- Sequence (P15056 whole entry V600E): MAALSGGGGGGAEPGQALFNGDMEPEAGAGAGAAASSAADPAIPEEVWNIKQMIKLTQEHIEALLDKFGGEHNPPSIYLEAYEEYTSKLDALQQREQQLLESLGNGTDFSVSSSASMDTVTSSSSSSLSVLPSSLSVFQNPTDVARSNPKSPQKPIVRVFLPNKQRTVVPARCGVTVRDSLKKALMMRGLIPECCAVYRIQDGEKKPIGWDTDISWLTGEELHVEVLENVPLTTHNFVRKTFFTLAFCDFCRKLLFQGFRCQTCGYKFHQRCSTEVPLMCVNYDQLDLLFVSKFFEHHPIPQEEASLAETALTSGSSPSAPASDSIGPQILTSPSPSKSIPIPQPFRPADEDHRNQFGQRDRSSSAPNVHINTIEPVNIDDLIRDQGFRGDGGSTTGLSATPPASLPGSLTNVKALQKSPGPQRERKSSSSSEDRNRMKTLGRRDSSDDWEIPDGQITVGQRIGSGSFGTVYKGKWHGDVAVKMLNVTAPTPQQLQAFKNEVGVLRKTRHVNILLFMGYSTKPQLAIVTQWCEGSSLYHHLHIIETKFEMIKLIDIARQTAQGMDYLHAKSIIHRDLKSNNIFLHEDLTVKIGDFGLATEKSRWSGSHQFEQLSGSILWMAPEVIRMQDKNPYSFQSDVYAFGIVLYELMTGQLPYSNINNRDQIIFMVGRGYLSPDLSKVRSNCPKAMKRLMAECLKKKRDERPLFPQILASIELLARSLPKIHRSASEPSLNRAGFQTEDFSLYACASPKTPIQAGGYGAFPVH
- ASSAY DETAILS: In vitro Raf activity determination (Alpha Screen, biotinylated kinase-dead MEK1 substrate), B-Raf
- CONDITION CONTEXT: b-Raf (V600E) approximately 4 pM; ATP 10 μM; pre-incubation 60 minutes; reaction 3 hours at room temperature
pIC50: −log10 of the molar value.
VALUE TYPE: pIC50

COMPOUND	pIC50
Cc1ccc(NC(=O)c2ccnc(C(F)(F)F)c2)cc1-c1cnc(N2CC(O)C2)c(C#N)c1 [Example 63]	9.31

(1) Cc1ccc(NC(=O)c2cnnc(C(F)(F)F)c2)cc1-c1cnc(N2CC(C)(O)C2)c(C#N)c1 [Example 213]
(2) Cc1ccc(NC(=O)c2cc(C(F)(F)F)ccn2)cc1-c1cnc(N2CC(C)(O)C2)c(C#N)c1 [Example 224]
Of 1 versus 2 , which is the one with smaller reported pIC50? Return value: the label identifying the chosen record. 1

(I) Cc1ccc(NC(=O)c2cc(C(C)(C)C#N)ccn2)cc1-c1cnc(N2CC(C)(O)C2)c(C#N)c1 [Example 232]
(II) Cc1ncc(NC(=O)c2ccnc(C(C)(C)C#N)c2)cc1-c1cnc(-c2ccn(C)c(=O)c2)c(C#N)c1 [Example 103]
(III) Cc1cc(C(=O)Nc2ccc(C)c(-c3cnc(N(C)C)c(C#N)c3)c2)n(C)n1 [Example 254]
rank_up(items): orders items by reported pIC50 in ascending numerical order. Returns: the labels arranged in the requested order. III, II, I

(I) Cc1ncc(NC(=O)c2ccnc(C(C)(F)F)c2)cc1-c1cnc(N2CC(C)(O)C2)c(C#N)c1 [Example 183]
(II) COc1ncc(-c2cc(NC(=O)c3cccc(C(F)(F)F)c3)ccc2C)cc1C#N [Example 37]
(III) Cc1ccc(NC(=O)c2ccnc(C(C)C)c2)cc1-c1cnc(N2CCNCC2)c(C#N)c1 [Example 150]
Order the items by recorded pIC50; the first position goes to the largest value. A complete answer lists every label in the requested sequence. III, II, I
(III: 9.23, II: 8.88, I: 8.24)

(I) Cc1ccc(NC(=O)c2cnnc(C(C)(C)C#N)c2)cc1-c1cnc(N2CC(C)(O)C2)c(C#N)c1 [Example 214]
(II) Cc1ncc(NC(=O)c2ccnc(C(C)(C)C#N)c2)cc1-c1cnc(N(C)C)c(C#N)c1 [Example 26]
Select one. Lower pIC50: I or II I would appreciate it if you answered with the label of your choice. II
